Consider the following compounds and their measured viability, T/C readings.
Tested on: 996289-038-R-J1-PDC spheroid viability
Experiment: Anticancer human tumor 996289-038-R-J1-PDC patient-derived colon adenocarcinoma cell line growth inhibition [PI3K]
Details: second compound 0.1 µM; first compound 0.3 µM; stronger effect = lower value; spheroids with HUVEC and MSC
parameter: viability, T/C (%)

{"compound": "Cn1cnc2c(F)c(Nc3ccc(Br)cc3Cl)c(C(=O)NOCCO)cc21 + Cc1nc(NC(=O)N2CCCC2C(N)=O)sc1-c1ccnc(C(C)(C)C(F)(F)F)c1", "tested system": "996289-038-R-J1-PDC spheroid viability", "reading unit": "%", "experimental value": 38.6}
{"compound": "Cn1cnc2c(F)c(Nc3ccc(Br)cc3Cl)c(C(=O)NOCCO)cc21 + CC(Nc1ncnc2nc[nH]c12)c1cc2cccc(Cl)c2c(=O)n1-c1ccccc1", "tested system": "996289-038-R-J1-PDC spheroid viability", "reading unit": "%", "experimental value": 42.8}
{"compound": "Cn1cnc2c(F)c(Nc3ccc(Br)cc3Cl)c(C(=O)NOCCO)cc21 + CC(Nc1ccc2c(c1)OCCn1cc(N3C(=O)OCC3C(F)F)nc1-2)C(N)=O", "tested system": "996289-038-R-J1-PDC spheroid viability", "reading unit": "%", "experimental value": 35}
{"compound": "Cn1cnc2c(F)c(Nc3ccc(Br)cc3Cl)c(C(=O)NOCCO)cc21 + COc1c(OCCCN2CCOCC2)ccc2c3n(c(=NC(=O)c4cnc(N)nc4)nc12)CCN3", "tested system": "996289-038-R-J1-PDC spheroid viability", "reading unit": "%", "experimental value": 18.6}

----------
Test system: 996289-038-R-J1-PDC spheroid viability
Assay: Anticancer human tumor 996289-038-R-J1-PDC cell line growth inhibition [PI3K];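 also: spheroids exposed to compounds for seven days before viability read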
Details: curve of first compound; second compound 1 µM; spheroids with HUVEC and MSC
pIC50: −log10 of the molar value.
The following compounds are shown together with reported pIC50 values.
parameter: pIC50

{"compound": "C=CC(=O)N1CCN(c2nc(=O)n(-c3c(C)ccnc3C(C)C)c3nc(-c4c(O)cccc4F)c(F)cc23)C(C)C1 (stereo not drawn) + COc1c(OCCCN2CCOCC2)ccc2c3n(c(=NC(=O)c4cnc(N)nc4)nc12)CCN3", "parameter": "pIC50", "experimental value": "> 7.50"}
{"compound": "CCN1CCN(Cc2ccc(Nc3ncc(F)c(-c4cc(F)c5nc(C)n(C(C)C)c5c4)n3)nc2)CC1 + CC(Nc1ncnc2nc[nH]c12)c1cc2cccc(Cl)c2c(=O)n1-c1ccccc1", "parameter": "pIC50", "experimental value": "< 6.00"}
{"compound": "Cn1cnc2c(F)c(Nc3ccc(Br)cc3Cl)c(C(=O)NOCCO)cc21 + CC(Nc1ncnc2nc[nH]c12)c1cc2cccc(Cl)c2c(=O)n1-c1ccccc1", "parameter": "pIC50", "experimental value": 6.66}

----------
System: 996289-038-R-J1-PDC spheroid viability
Test: Anticancer human tumor 996289-038-R-J1-PDC cell line growth inhibition [PI3K];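 also: spheroids exposed to compounds for seven days before viability read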;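 as to viability, T/C: luminescence used as a proxy for viable cell amount; percent viability relative to DMSO vehicle control as 100%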
Conditions: second compound 3.16 µM; first compound 1 µM; stronger effect = lower value; spheroids with HUVEC and MSC
Field: label. Allowed values: yes (1) (viability, T/C < 80%) or no (0) (viability, T/C >= 80%).

{"compound": "Cn1nccc1Nc1nccc(-c2ccn(C(CO)c3ccc(Cl)c(F)c3)c(=O)c2)n1 (stereo unspecified) + CC(Nc1ncnc2nc[nH]c12)c1cc2cccc(Cl)c2c(=O)n1-c1ccccc1", "tested system": "996289-038-R-J1-PDC spheroid viability", "group": "no (0)"}
{"compound": "CNC(=O)c1ccc(N2C(=S)N(c3ccc(C#N)c(C(F)(F)F)c3)C(=O)C2(C)C)cc1F + Cc1nc(NC(=O)N2CCCC2C(N)=O)sc1-c1ccnc(C(C)(C)C(F)(F)F)c1", "tested system": "996289-038-R-J1-PDC spheroid viability", "group": "yes (1)"}
{"compound": "Cn1ncc(Cl)c1-c1cc(C(=O)NC(CN)Cc2cccc(F)c2)sc1Cl (stereo unspecified) + Cc1nc(NC(=O)N2CCCC2C(N)=O)sc1-c1ccnc(C(C)(C)C(F)(F)F)c1", "tested system": "996289-038-R-J1-PDC spheroid viability", "group": "yes (1)"}
{"compound": "CC(C)NCC(C(=O)N1CCN(c2ncnc3c2C(C)CC3O)CC1)c1ccc(Cl)cc1 (stereo unspecified) + Cc1nc(NC(=O)N2CCCC2C(N)=O)sc1-c1ccnc(C(C)(C)C(F)(F)F)c1", "tested system": "996289-038-R-J1-PDC spheroid viability", "group": "yes (1)"}
{"compound": "CC(Cn1ccc(-c2ccc(C#N)c(Cl)c2)n1)NC(=O)c1cc(C(C)O)[nH]n1 (stereo unspecified) + CC(Nc1ncnc2nc[nH]c12)c1cc2cccc(Cl)c2c(=O)n1-c1ccccc1", "tested system": "996289-038-R-J1-PDC spheroid viability", "group": "no (0)"}
{"compound": "Cn1ncc(Cl)c1-c1cc(C(=O)NC(CN)Cc2cccc(F)c2)sc1Cl (stereo unspecified) + CC(Nc1ncnc2nc[nH]c12)c1cc2cccc(Cl)c2c(=O)n1-c1ccccc1", "tested system": "996289-038-R-J1-PDC spheroid viability", "group": "no (0)"}
